meta.source: patent US20250304620A1

Some molecules, each annotated with its measured remaining at 12 h, 0.91 mg/mL.
# ASSAY REMARKS: Serum stability assay (residual level by RP-HPLC)
# TEST CONTEXT: human
Non-standard residues stand in square brackets, D forms with d. Residues, ends and D or L forms follow the SMILES beside them. dPhe(4-Br) = N[C@H](Cc1ccc(Br)cc1)C(=O)O; d2Nal = N[C@H](Cc1ccc2ccccc2c1)C(=O)O
Give just the numeric value; % need not be written.

MOLECULE	remaining at 12 h, 0.91 mg/mL (%)
CC(=O)N[C@H](CCCNC(=N)N)C(=O)N[C@H](CCCCN)C(=O)N[C@H](CC(C)C)C(=O)N[C@H](CC(C)C)C(=O)N[C@H](Cc1ccccc1)C(=O)N[C@H](CCCNC(=N)N)C(=O)N[C@H](CC(C)C)C(=O)N[C@H](CCCCN)C(=O)N[C@H](Cc1ccc2ccccc2c1)C(=O)N[C@H](CCCNC(=N)N)C(=O)N[C@H](CCCCN)C(N)=O [LV-3] (Ac-[dR][dK][dL][dL][dF][dR][dL][dK][d2Nal][dR][dK]-NH2)	98.7
CC(=O)N[C@H](CCCCN)C(=O)N[C@H](CCCCN)C(=O)N[C@H](CC(C)C)C(=O)N[C@H](CC(C)C)C(=O)N[C@H](Cc1ccc2ccccc2c1)C(=O)N[C@H](CCCNC(=N)N)C(=O)N[C@H](CC(C)C)C(=O)N[C@H](CCCCN)C(=O)N[C@H](Cc1ccc2ccccc2c1)C(=O)N[C@H](CCCNC(=N)N)C(=O)N[C@H](CCCCN)C(N)=O [LV-19] (Ac-[dK][dK][dL][dL][d2Nal][dR][dL][dK][d2Nal][dR][dK]-NH2)	98.1

-- ask Tell me remaining at 12 h, 0.91 mg/mL reported for CC(=O)N[C@H](CCCCN)C(=O)N[C@H](CCCCN)C(=O)N[C@H](CC(C)C)C(=O)N[C@H](CC(C)C)C(=O)N[C@H](Cc1ccc(Br)cc1)C(=O)N[C@H](CCCNC(=N)N)C(=O)N[C@H](CC(C)C)C(=O)N[C@H](CCCCN)C(=O)N[C@H](Cc1ccc(Br)cc1)C(=O)N[C@H](CCCNC(=N)N)C(=O)N[C@H](CCCCN)C(N)=O [LV-10] (Ac-[dK][dK][dL][dL][dPhe(4-Br)][dR][dL][dK][dPhe(4-Br)][dR][dK]-NH2)
-- reply 98

====

# Tested on: Escherichia coli ATCC 25922
# Type: cell-based
Non-standard residues stand in square brackets, D forms with d. Residues, ends and D or L forms follow the SMILES beside them. dPhe(3,4-F2) = N[C@H](Cc1ccc(F)c(F)c1)C(=O)O; dPhe(4-Br) = N[C@H](Cc1ccc(Br)cc1)C(=O)O; d2Nal = N[C@H](Cc1ccc2ccccc2c1)C(=O)O
READOUT LABEL: MIC Escherichia coli ATCC 25922
Answer with the number, then the unit.

Completed entries (count: 2):
MOLECULE	SYSTEM	MIC Escherichia coli ATCC 25922
CC(=O)N[C@H](CCCCN)C(=O)N[C@H](CCCCN)C(=O)N[C@H](CC(C)C)C(=O)N[C@H](CC(C)C)C(=O)N[C@H](Cc1ccc2ccccc2c1)C(=O)N[C@H](CCCNC(=N)N)C(=O)N[C@H](CC(C)C)C(=O)N[C@H](CCCCN)C(=O)N[C@H](Cc1ccc2ccccc2c1)C(=O)N[C@H](CCCNC(=N)N)C(=O)N[C@H](CCCCN)C(N)=O [LV-19] (Ac-[dK][dK][dL][dL][d2Nal][dR][dL][dK][d2Nal][dR][dK]-NH2)	Escherichia coli ATCC 25922	1 µg/mL
CC(=O)N[C@H](CCCCN)C(=O)N[C@H](CCCCN)C(=O)N[C@H](CC(C)C)C(=O)N[C@H](CC(C)C)C(=O)N[C@H](Cc1ccc(F)c(F)c1)C(=O)N[C@H](CCCNC(=N)N)C(=O)N[C@H](CC(C)C)C(=O)N[C@H](CCCCN)C(=O)N[C@H](Cc1ccc(F)c(F)c1)C(=O)N[C@H](CCCNC(=N)N)C(=O)N[C@H](CCCCN)C(N)=O [LV-25] (Ac-[dK][dK][dL][dL][dPhe(3,4-F2)][dR][dL][dK][dPhe(3,4-F2)][dR][dK]-NH2)	Escherichia coli ATCC 25922	1 µg/mL

Shift focus to the following entry.
-- ask Indicate its recorded MIC Escherichia coli ATCC 25922; the molecule in question is CC(=O)N[C@H](CCCCN)C(=O)N[C@H](CCCCN)C(=O)N[C@H](CC(C)C)C(=O)N[C@H](CC(C)C)C(=O)N[C@H](Cc1ccc(Br)cc1)C(=O)N[C@H](CCCNC(=N)N)C(=O)N[C@H](CC(C)C)C(=O)N[C@H](CCCCN)C(=O)N[C@H](Cc1ccc(Br)cc1)C(=O)N[C@H](CCCNC(=N)N)C(=O)N[C@H](CCCCN)C(N)=O [LV-10] (Ac-[dK][dK][dL][dL][dPhe(4-Br)][dR][dL][dK][dPhe(4-Br)][dR][dK]-NH2)
-- reply 1 µg/mL
